Test system: MS2 coat protein
assay_text: apparent KD of MS2 coat protein; designed switch direction (-1 OFF switch, 1 ON switch): -1; higher = weaker reporter binding
run_parameters: input ligand: FMN 200 uM
Label FALSE if apparent KD of MS2 coat protein falls below 90 nM; label TRUE in every other case.

These solved cases illustrate the format of a correct answer.
>>> assigned_class("AAGAUGUGAGGAUAUCUAUUGAAGCGCGGUUCCCGGCAGAGAGAGAAGGCACAUGAGGAUCACCCAUGUAUAGC [Eternabot (L1) Solution 53] (Eterna round: R97, puzzle: Exclusion 4)")
"FALSE"
>>> assigned_class("GAGUACUGAGGAUAUACAUGAGGAUCACCCAUGUGUUCCAACUAGGAAUCUAGAAUGUGUAGAAGGCAGUGCUG [salish99_ex3_r4_703] (Eterna round: R97, puzzle: Exclusion 3)")
"TRUE"
>>> assigned_class("AGGUACUUCAGGAGACAUGAGGAUCACCCAUGUUGAGUUAGCGAGGAUAUCGGUAACCAUUGUUAUGAGAAGGCGCAAACCAGA [Ex NG3 #42] (Eterna round: R96, puzzle: Exclusion NG 3)")
"FALSE"
>>> assigned_class("UUUGAUUGCACAGGAUAUUGUCAUUUGAGUUGUCAAGAAGGGUGUACAUGAGGAUCACCCAUGUUAUGCUUUCCUCGCUCACUU [JR_ExcNG1_Sub009] (Eterna round: R96, puzzle: Exclusion NG 1)")
"FALSE"

Okay, next one:
Assess whether reported apparent KD of MS2 coat protein for CAGUACAGAGGAUAUACAUGAGGAUCACCCAUGUGUAGCAGCUAGGAGACUAGCGCAUGUAGAAGGCUGUACUG [jl-ex3-4.31 salish99 mod] (Eterna round: R97, puzzle: Exclusion 3) sits at 90 nM or higher. TRUE

----------
Kindly state apparent KD of MS2 coat protein for each of the entries shown.
Tested on: MS2 coat protein
assay_text: apparent KD of MS2 coat protein; designed switch direction (-1 OFF switch, 1 ON switch): -1; higher = weaker reporter binding
run_parameters: Eterna round: R95; input ligand: FMN 200 uM
# number then unit; no other words

Would you please look over these solved cases?
>>> result("AAGAAGAAACAAGCUUUUUGCACGUCAUAUAGUGACGCAACAUGAGGAUCACCCAUGUAUAGGGUGGGAAAGGAUAG [JR_SV3TOV2_Sub047] (puzzle: Sensor v3, turn-off variant 2)")
"0.338 µM"
>>> result("ACCGAACAUGAGGAUCACCCAUGUGAGGAUAUCCCGAGAUUAAAUGCCGCAAGAAGGCGGAGAAGGCGCAUGGG [Ditiesre] (puzzle: Exclusion 1)")
"0.0452 µM"
>>> result("GAUUAUGCGAGCUUUAGGGACAUGAGGAUCACCCAUGUUCGUCUUAUUGGUCUAAGUGCACUAACAUACCUAAAUCU [JMF 30] (puzzle: Sensor v3, turn-off variant 1)")
"0.0212 µM"
>>> result("GAUUAUGCGAGCUUUAGGGACAUGAGGAUCACCCAUGUUCGUCUUAUUAAUCUAGGUACGCUAACAUACCUAAAUCU [JMF 39] (puzzle: Sensor v3, turn-off variant 1)")
"0.0203 µM"
>>> result("AGUUCUAACACGUUGGUGUUAGUACCAUAAGCUUGUGAUACAUGAGGAUCACCCAUGUCCUCAUAAGCUCGUCUUAU [salish99_TOv2_r3_1001] (puzzle: Sensor v3, turn-off variant 2)")
"0.0268 µM"

Please look at the items below and tell me apparent KD of MS2 coat protein for each one, in order.
1. GAUUAUGCGAGCUUUAGGGACAUGAGGAUCACCCAUGUUCGUCUUAUUAGUCUGAAUGCACUGACAUACCUAAAUCU [JMF 75] (puzzle: Sensor v3, turn-off variant 1)
2. UUUAAUUUUUUUUUUUUACAAGCUUUUUGCUCGUCUUAUACAUGAGGAUCACCCAUGUGGGUGGAAAAUAAAUUAUC [JMF 92] (puzzle: Sensor v3, turn-off variant 2)
3. CUCCUCGUGGCGCCUAAACACAUGAGGAUCACCCAUGUACAGGCUUUUUGCCGUCUUAUAAUAAAACCGAGGAGACG [Ataesarxe] (puzzle: Sensor v3, turn-off variant 1)
4. CUUAGCCUAAAAUCACGCAAGCUUUUUACUUGUCUUAAGACAUGAGGAUCACCCAUGUCCGGGCUGAACUUAUGGAA [Zaortequ] (puzzle: Sensor v3, turn-off variant 2)

1: 0.0162 µM; 2: 0.0339 µM; 3: 0.0166 µM; 4: 0.0212 µM

Recorded apparent KD of MS2 coat protein for AAGCGCGUAGGAUAUACAUGAGGAUCACCCAUGUGAGGAAGGAGUAGGAAGUGUGGAAGUAGAAGGACGGAGAG [JR_Exclu3_Sub077] (puzzle: Exclusion 3) , please? 0.0344 µM
